Tested on: OVCAR-3 ovarian
Experiment: NCI tumour cell line growth inhibition, 48 h
Would you mind labelling by TGI? At or over 40 µM is yes (1), under is no (0).

- COMPOUND: "Cc1cc(I)cc(CN(C)CCCCN2CCCCC2)c1O"
  CAT: "yes (1)"
- COMPOUND: "C=C(Br)C(C)(Cl)CCC(Br)C(C)(C)Cl (stereo not given)"
  CAT: "no (0)"
- COMPOUND: "O=c1[nH]cc(N=Cc2cc(Cl)cc(Cl)c2O)c(=O)[nH]1"
  CAT: "yes (1)"
- COMPOUND: "C=C1c2nc3ccccc3n2C=C(c2ccccc2)N1c1ccc([N+](=O)[O-])cc1"
  CAT: "yes (1)"
- COMPOUND: "O=C1/C(=C/c2ccccc2)CN(C(=O)C(Cl)(Cl)Cl)C/C1=C\\c1ccccc1"
  CAT: "no (0)"
- COMPOUND: "O=C(O)CSc1ccc([N+](=O)[O-])cc1[N+](=O)[O-]"
  CAT: "yes (1)"
- COMPOUND: "C[C@@]12C[C@@H](c3ccccc3O1)N1CCCCSC1=N2"
  CAT: "yes (1)"
- COMPOUND: "COc1cc(Cc2cnc(/N=C3\\C(=O)N(CN4CCN(c5c(F)cc6c(=O)c(C(=O)O)cn(C7CC7)c6c5OC)CC4C)c4ccc(F)cc43)nc2N)cc(OC)c1OC (stereo not given)"
  CAT: "no (0)"

// query Please indicate if the recorded TGI for `CC[C@@]1(C[C@H]2C[C@@]3(C(=O)OC)c4[nH]c5ccccc5c4CCN3C2=O)COC2(CCCCC2)O1` meets or exceeds 40 µM.
// result yes (1)

// query Confirm if TGI reported for the compound `COc1cc(/C=C/C(=N\NS(=O)(=O)c2ccc(C)cc2)c2sc(NNC(C)=O)nc2C)ccc1O` is 40 µM or above.
// result yes (1)

// query Does `CN1CCN([C@H]2C[C@H]3[C@@H]4CC=C5C[C@@H](O)CC[C@]5(C)[C@H]4CC[C@]3(C)C2=O)CC1` have a reported TGI of at least 40 µM?
// result yes (1)

// query Entry CC1=C(C(=O)Nc2ccc(Cl)c(Cl)c2)C(c2cccc(Oc3ccccc3)c2)NC(=S)N1 (stereo not given) : is its TGI no less than 40 µM?
// result no (0)

// query Is reported TGI greater than or equal to 40 µM here: `CC(=O)NC1=C(NCCC(C)C)C(=O)c2ccccc2C1=O`
// result yes (1)

// query Form field: TGI at least 40 µM? Entry: `FC(F)(F)c1cc(Cl)cnc1N/N=C(/c1ccccc1)c1ccccn1`
// result no (0)

// query Given the entry `O=[N+]([O-])C(=C1NCCN1)/C(Cl)=C(\Cl)Br` , answer whether its TGI meets or surpasses 40 µM.
// result no (0)

// query hey, is TGI for this one >= 40 µM? O=C1C2C(C(=O)N1OS(=O)(=O)c1ccccc1)N(Cc1ccccc1)C(=O)N2Cc1ccccc1 (stereo not given)
// result yes (1)

====

Test system: T-47D breast
Test: NCI tumour cell line growth inhibition, 48 h; in the data active = GI50 below about 0.43 µM; inactive = the rest
Parameter call: string, one of Yes = active, No = inactive

Answered cases to consult:
- MOLECULE: "Clc1ccc2c(NCCCCNc3nc(N4CCCCC4)nc4ccccc34)ccnc2c1"
  CAT: "No"
- MOLECULE: "CC[C@@]1(O)C[C@H](OC2CC(N(C)C)C(O)C(C)O2)c2c(O)c3c(c(O)c2[C@H]1OC1CC(N(C)C)C(O)C(C)O1)C(=O)c1cccc(O)c1C3=O (stereo partly drawn)"
  CAT: "Yes"
- MOLECULE: "Cc1ccc(C(=O)/C(=C/c2ccc([N+](=O)[O-])cc2)SCc2ccc(Cl)cc2)cc1"
  CAT: "No"

// query # fetch the recorded call for `O=C(Nc1ccccc1OC(F)(F)F)Nc1n[nH]c2ccccc12` here
// result No

// query Outcome? CCCCOC(=O)C1OC(O[C@H]2CCC3(C)C(CCC4(C)C3CC=C3C5CC(C)(C)CCC5(C(=O)O)CC[C@]34C)C2(C)C)C(OC2OC(CO)C(O)C(O)C2O)C(OC2OC(CO)C(O)C(O)C2O)C1O (stereo partly drawn)
// result No
